Tested on: PPARg:RXRa (NR concentration 180 nM, RXRa partner concentration 90 nM)
method notes: PBM binding z-score (relative to random genomic background probes); higher = stronger binding; sequences stand for … in GC…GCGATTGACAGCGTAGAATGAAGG
Reported PBM binding z-score values follow for various sequences
Please respond with just the number, no unit label.

Worked examples, 4 sequences total:
>  <construct sequence>
ACTAGCAGGCTAAGGGTCACTCAAGATTAGTCCG

>  <val>
6.55

$$$$
>  <construct sequence>
ATCTCTAGGTAAAGGTTCAGTGAATCCCGAGGAT

>  <val>
4.99

$$$$
>  <construct sequence>
TCTGCTAGGTCAACGATGTTCAGCTAATCTGCTA

>  <val>
2.54

$$$$
>  <construct sequence>
CGAACGAGGGCATGAGTTGATAGGAAATGCCGAT

>  <val>
1.61

$$$$

# PBM binding z-score of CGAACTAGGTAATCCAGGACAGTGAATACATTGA = 1.56

In plain terms, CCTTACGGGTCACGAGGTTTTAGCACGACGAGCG has a documented PBM binding z-score of 6.51

// field: PBM binding z-score; key: TCTCGGAGGACACGAAAGGCCAGAGCTCGACATC ; value = 0.264

Per the records, this sequence ( GCATATAGGTTATACAAGGTGAAAGTCCGATTGT ) has PBM binding z-score equal to 2.19

Consider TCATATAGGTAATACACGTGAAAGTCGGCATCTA . Its measured PBM binding z-score is 1.1

// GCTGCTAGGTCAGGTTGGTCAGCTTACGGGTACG : PBM binding z-score value = 0.483

Short answer for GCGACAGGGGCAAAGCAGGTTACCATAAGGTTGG : PBM binding z-score was 0.589

// GGAATGAGGGCATTCGAGTTGATAGCATGGCGAT : PBM binding z-score value = 1.46

* * *

Test system: VDR homodimer (NR concentration 270 nM)
method notes: PBM binding z-score (relative to random genomic background probes); higher = stronger binding; sequences stand for … in GC…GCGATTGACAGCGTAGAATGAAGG
Below is a list of entries, each paired with its recorded PBM binding z-score value.

Answered examples (8):
>  <construct sequence>
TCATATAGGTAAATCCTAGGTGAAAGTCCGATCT

>  <measure>
PBM binding z-score

>  <val>
-0.253

$$$$
>  <construct sequence>
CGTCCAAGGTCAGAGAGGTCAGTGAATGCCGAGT

>  <measure>
PBM binding z-score

>  <val>
5.68

$$$$
>  <construct sequence>
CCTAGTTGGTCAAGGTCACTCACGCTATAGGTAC

>  <measure>
PBM binding z-score

>  <val>
3.53

$$$$
>  <construct sequence>
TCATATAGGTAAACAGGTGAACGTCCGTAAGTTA

>  <measure>
PBM binding z-score

>  <val>
0.243

$$$$
>  <construct sequence>
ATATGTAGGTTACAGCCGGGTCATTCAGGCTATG

>  <measure>
PBM binding z-score

>  <val>
2.96

$$$$
>  <construct sequence>
TCTAGCAGGCCAGAGGGGCACTCAAGAGGTACGG

>  <measure>
PBM binding z-score

>  <val>
-0.703

$$$$
>  <construct sequence>
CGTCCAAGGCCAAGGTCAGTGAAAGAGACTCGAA

>  <measure>
PBM binding z-score

>  <val>
0.947

$$$$
>  <construct sequence>
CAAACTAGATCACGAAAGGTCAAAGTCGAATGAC

>  <measure>
PBM binding z-score

>  <val>
2.71

$$$$

PBM binding z-score reported for this sequence CCTACTGGGTCAAAAAGGTCATTGATGCCGATAA : 4.79
